Data provenance: patent US7658917

What ΔLag; nucleation assay; 100 mole % was measured for each of the following?
target: natural β-amyloid peptide β-AP1-40 (human)
Sequence (peptide, as listed by the source): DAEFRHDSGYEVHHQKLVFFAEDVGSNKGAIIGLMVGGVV
methodDescription: cell-based or functional assay
* marks the point of attachment. Cholyl = C[C@H](CCC(=O)*)[C@H]1CC[C@H]2[C@@H]3[C@H](O)C[C@@H]4C[C@H](O)CC[C@]4(C)[C@H]3C[C@H](O)[C@]12C
Numbers only, in ratio.

Worked examples, 2 binders total:
binder	unitAnnotation	ΔLag; nucleation assay; 100 mole %
Cholyl-LVFFAE-OH (SMILES CC(C)C[C@H](NC(=O)CC[C@@H](C)[C@H]1CC[C@H]2[C@@H]3[C@H](O)C[C@@H]4C[C@H](O)CC[C@]4(C)[C@H]3C[C@H](O)[C@]12C)C(=O)N[C@H](C(=O)N[C@@H](Cc1ccccc1)C(=O)N[C@@H](Cc1ccccc1)C(=O)N[C@@H](C)C(=O)N[C@@H](CCC(=O)O)C(=O)O)C(C)C) [CA-LVFFAE-oh]	ratio	1.4
Cholyl-AVAFA-OH (SMILES CC(C)[C@H](NC(=O)[C@H](C)NC(=O)CC[C@@H](C)[C@H]1CC[C@H]2[C@@H]3[C@H](O)C[C@@H]4C[C@H](O)CC[C@]4(C)[C@H]3C[C@H](O)[C@]12C)C(=O)N[C@@H](C)C(=O)N[C@@H](Cc1ccccc1)C(=O)N[C@@H](C)C(=O)O) [CA-AVAFA-oh]	ratio	1

Let us move to another entry and its ΔLag; nucleation assay; 100 mole %.
Quick check: ΔLag; nucleation assay; 100 mole % of Cholyl-Val-Phe-Phe-OH (SMILES CC(C)[C@H](NC(=O)CC[C@@H](C)[C@H]1CC[C@H]2[C@@H]3[C@H](O)C[C@@H]4C[C@H](O)CC[C@]4(C)[C@H]3C[C@H](O)[C@]12C)C(=O)N[C@@H](Cc1ccccc1)C(=O)N[C@@H](Cc1ccccc1)C(=O)O) [CA-VFF-oh] ?
1.8
